# experimental.target: T1, hGITR.mmh (human)
# T1 construct: soluble monomeric construct; also called human (h) GITR.mmh; monomeric human GITR
# T1 chain: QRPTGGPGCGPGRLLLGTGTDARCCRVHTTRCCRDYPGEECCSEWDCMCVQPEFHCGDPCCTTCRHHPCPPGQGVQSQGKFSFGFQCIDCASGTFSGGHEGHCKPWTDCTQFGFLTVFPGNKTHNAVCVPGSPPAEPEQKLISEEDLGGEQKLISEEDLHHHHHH
# procedure.text: SPR 37C, mAb capture
Quick reference: kon of the listed items.
Answer in M⁻¹ s⁻¹, number only, no unit symbol.

Worked cases, answers included:
>>> value_reported("H4H14516P (antibody, human IgG4, V domains shown, human IgG4 (H4H)) VH: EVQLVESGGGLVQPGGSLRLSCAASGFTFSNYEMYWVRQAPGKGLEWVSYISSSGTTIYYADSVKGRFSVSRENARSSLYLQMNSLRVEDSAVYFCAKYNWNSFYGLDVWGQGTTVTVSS VL: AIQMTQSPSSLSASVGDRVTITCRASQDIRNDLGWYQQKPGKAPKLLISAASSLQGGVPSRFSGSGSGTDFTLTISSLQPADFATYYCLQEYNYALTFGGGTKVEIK")
225000
>>> value_reported("H4H14470P (antibody, human IgG4, V domains shown, human IgG4 (H4H)) VH: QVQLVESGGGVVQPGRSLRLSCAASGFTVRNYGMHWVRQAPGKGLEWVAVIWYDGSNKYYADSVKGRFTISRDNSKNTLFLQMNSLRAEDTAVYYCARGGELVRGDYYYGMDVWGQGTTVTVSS VL: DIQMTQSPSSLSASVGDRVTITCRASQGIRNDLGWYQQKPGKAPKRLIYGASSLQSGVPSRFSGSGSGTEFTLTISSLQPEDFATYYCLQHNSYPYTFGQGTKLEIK")
221000

Field: next binder
query: # input binder: H1H14503P (antibody, human IgG1, V domains shown, human IgG1 (H1H)) VH: QVQLVESGGGVVQPGRSLRLSCEASGFTFSNYGFHWVRQAPGKGLDWVAVIWYAGSNKFYVDSVQGRFTISRDNSKQILFLQMNSLRAEDSAVYYCVRGGILGIDYYSGMDVWGQGTTVTVSS VL: AIQMTQSPSSLSASVGDRVTITCRASQDIRNDLGWYQQRPGKAPKFLIYSTSSLQSGVPSRFSGSGSGTDFILTISSLQPEDFATYYCLQSHNYPWTFGHGTKVEIK ; wanted: its kon
result: 532000

Where do the numbers come from? From patent US20170355774A1.
